- target-desc: sRI-sT complex (Enterobacteria phage T4, UniProt P06808+P13304)
- Sequence (P06808 56-218): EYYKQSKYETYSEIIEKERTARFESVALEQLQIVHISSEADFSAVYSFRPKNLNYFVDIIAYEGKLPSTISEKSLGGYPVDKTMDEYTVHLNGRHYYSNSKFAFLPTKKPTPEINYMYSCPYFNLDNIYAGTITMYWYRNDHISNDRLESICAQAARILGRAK
- Sequence (P13304 25-97): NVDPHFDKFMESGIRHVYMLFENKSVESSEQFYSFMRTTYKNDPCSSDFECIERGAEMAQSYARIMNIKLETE
- assay-summary: biochemical
- Format: binding
quantity: Kd (µM)
Number only, in µM; omit the unit.

Task: Form: Entry = Nc1nc2c(ncn2[C@@H]2O[C@H](CO)[C@@H](O)[C@H]2O)c(=O)[nH]1 | System = sRI-sT complex (Enterobacteria phage T4, UniProt P06808+P13304) | Kd = ____
Output: 43

Just for reference, paper PMC7394242 is where these values come from.
